src = paper PMC11876601

System: p-sites in DNA-damaged AsPC-1 cells
TEST_DETAILS: decryptM dose-resolved phosphoproteomics of ATRi in GEM-pre-treated cells
Format: cell-based, human
CONDITION: SNRPA-pS115
Give Log2 PTM response (GEM+ATRi vs. GEM) for every item shown.
API doc: respond with a numeric literal and nothing else, no unit.

## Input Requested field: Log2 PTM response (GEM+ATRi vs. GEM). Item: Nc1nn2cc(F)cnc2c1C(=O)Nc1cncc(F)c1N1CCC(C(=O)N2CCN(C3COC3)CC2)CC1
## Output -1

## Input Requested field: Log2 PTM response (GEM+ATRi vs. GEM). Item: CNCc1ccc(-c2cc(-c3nc(-c4ccc(S(=O)(=O)C(C)C)cc4)cnc3N)on2)cc1
## Output -1.2

## Input Requested field: Log2 PTM response (GEM+ATRi vs. GEM). Item: C[C@@H]1COCCN1c1cc(-c2ccnn2C)c2ccnc(-c3ccn[nH]3)c2n1
## Output -1.1

## Input Requested field: Log2 PTM response (GEM+ATRi vs. GEM). Item: C[C@@H]1COCCN1c1cc(C2([S@](C)(=N)=O)CC2)nc(-c2cc[nH]c3nccc2-3)n1
## Output -1.4

----------
Give EC50 for every item shown.
Tested on: PANC-1
TEST_DETAILS: cells
Design: Viability of PDAC cell lines, ATPlite luminescence, 11-dose single-agent curve fit
CONDITION: Homo sapiens, PANC-1, 72 h, read-out: EC50 [nM]

## Input Requested field: EC50. Item: CC(C)NC[C@@H](C(=O)N1CCN(c2ncnc3c2[C@H](C)C[C@H]3O)CC1)c1ccc(Cl)cc1
## Output > 10000 nM

## Input Requested field: EC50. Item: CC(C)(C)c1cc(NC(=O)Nc2ccc(-c3cn4c(n3)sc3cc(OCCN5CCOCC5)ccc34)cc2)no1
## Output 515 nM

## Input Requested field: EC50. Item: CC(C)N1CCN(Cc2cnc(-c3cc(-c4cccc5[nH]ccc45)cc4[nH]ncc34)o2)CC1
## Output > 10000 nM

## Input Requested field: EC50. Item: COc1cc2nccc(Oc3ccc(NC(=O)Nc4cc(C)on4)c(Cl)c3)c2cc1OC
## Output > 10000 nM

## Input Requested field: EC50. Item: Clc1ccc(Nc2nnc(Cc3ccncc3)c3ccccc23)cc1
## Output > 10000 nM

----------
Tested on: PANC-1
TEST_DETAILS: cells
Design: Viability of PDAC cell lines, ATPlite luminescence, 11-dose single-agent curve fit
CONDITION: Homo sapiens, PANC-1, 72 h, read-out: EC50 [nM]
MEASUREMENT_LABEL: EC50

## Input Requested field: EC50. Item: COC(=O)c1ccc2c(c1)NC(=O)/C2=C(\Nc1ccc(N(C)C(=O)CN2CCN(C)CC2)cc1)c1ccccc1
## Output 77.7 nM

## Input Requested field: EC50. Item: CC1(C)CNc2cc(NC(=O)c3cccnc3NCc3ccncc3)ccc21
## Output > 10000 nM

## Input Requested field: EC50. Item: C[C@@H]1COC(Nc2ccc3ncnc(Nc4ccc(OCc5nccs5)c(Cl)c4)c3c2)=N1
## Output > 10000 nM

## Input Requested field: EC50. Item: CCn1c(=O)c(-c2cc(NC(=O)Nc3ccccc3)c(F)cc2Br)cc2cnc(NC)cc21
## Output > 10000 nM

## Input Requested field: EC50. Item: CCN(CC)CCNC(=O)c1c(C)[nH]c(/C=C2\C(=O)Nc3ccc(F)cc32)c1C
## Output > 10000 nM

## Input Requested field: EC50. Item: O=C1CCc2c(Oc3ccc4c(c3)[C@@H]3[C@H](O4)[C@H]3c3nc4cc(C(F)(F)F)ccc4[nH]3)ccnc2N1
## Output > 10000 nM
